In this section we review reported pIC50 values for a set of compounds.
# assayed.target: intrinsic renin contained in the renatured human plasma (Homo sapiens, UniProt P00797)
# Construct: intrinsic renin contained in the renatured plasma; tissue Ortho Bi-Level Plasma Renin Control
# Sequence (P00797 67-406): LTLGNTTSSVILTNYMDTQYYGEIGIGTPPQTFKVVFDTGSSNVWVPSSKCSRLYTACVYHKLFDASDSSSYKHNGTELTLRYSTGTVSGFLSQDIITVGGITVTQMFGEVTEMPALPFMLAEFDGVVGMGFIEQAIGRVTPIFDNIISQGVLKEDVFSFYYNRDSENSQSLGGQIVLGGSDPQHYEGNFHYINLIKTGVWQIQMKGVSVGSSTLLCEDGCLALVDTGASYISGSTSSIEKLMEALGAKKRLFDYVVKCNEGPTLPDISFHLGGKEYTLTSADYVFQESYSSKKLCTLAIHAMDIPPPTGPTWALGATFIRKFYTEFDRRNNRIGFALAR
# experiment.description: Renin inhibition in vitro (angiotensin I production in renatured human plasma, RIA)
# condition.label: 60 minutes incubation, read-out: IC50 (concentration which inhibits renin activity by 50%)
pIC50: −log10 of the molar value.

compound: O=C(C[C@H](O)[C@H](CC1CCCCC1)NC(=O)[C@H](Cc1c[nH]cn1)NC(=O)[C@@H](CC(=O)N1CCOCC1)Cc1cccc2ccccc12)c1ccccc1
assayed.target: intrinsic renin contained in the renatured human plasma (Homo sapiens, UniProt P00797)
pIC50: 7.74
--
compound: CC(C)OC(=O)C(O)C(CC1CCCCC1)NC(=O)[C@H](Cc1cnc[nH]1)NC(=O)[C@@H](CC(=O)N1CCOCC1)Cc1cccc2ccccc12 (stereo partly drawn) [KRI-1314, reference compound]
assayed.target: intrinsic renin contained in the renatured human plasma (Homo sapiens, UniProt P00797)
pIC50: 7.67
--
compound: CC(C)(C)S(=O)(=O)C[C@@H](Cc1ccccc1)C(=O)N[C@@H](Cc1cscn1)C(=O)N[C@@H](CC1CCCCC1)[C@@H](O)CNS(=O)(=O)c1ccccc1
assayed.target: intrinsic renin contained in the renatured human plasma (Homo sapiens, UniProt P00797)
pIC50: 8.91

###

Entries and their measured IC50 follow.
# assayed.target: intrinsic renin contained in the renatured human plasma (Homo sapiens, UniProt P00797)
# Construct: intrinsic renin contained in the renatured plasma; tissue Ortho Bi-Level Plasma Renin Control
# experiment.description: Renin inhibition in vitro (angiotensin I production in renatured human plasma, RIA)
# condition.label: 60 minutes incubation, read-out: IC50 (concentration which inhibits renin activity by 50%)

compound: CC(C)(C)S(=O)(=O)C[C@@H](Cc1ccccc1)C(=O)N[C@@H](Cc1c[nH]cn1)C(=O)N[C@@H](CC1CCCCC1)[C@@H](O)CC(=O)c1ccncc1
assayed.target: intrinsic renin contained in the renatured human plasma (Homo sapiens, UniProt P00797)
IC50: 0.00609 µM
--
compound: COc1ccc(C(=O)C[C@H](O)[C@H](CC2CCCCC2)NC(=O)[C@H](Cc2c[nH]cn2)NC(=O)[C@H](Cc2ccccc2)CS(=O)(=O)C(C)(C)C)cc1
assayed.target: intrinsic renin contained in the renatured human plasma (Homo sapiens, UniProt P00797)
IC50: 0.0392 µM
--
compound: CC(C)(C)S(=O)(=O)CC(Cc1ccccc1)C(=O)NC(Cc1cscn1)C(=O)NC(CC1CCCCC1)C(O)CNS(C)(=O)=O (stereo not shown)
assayed.target: intrinsic renin contained in the renatured human plasma (Homo sapiens, UniProt P00797)
IC50: 0.00053 µM
--
compound: CCS(=O)(=O)C[C@@H](Cc1ccccc1)C(=O)N[C@@H](Cc1c[nH]cn1)C(=O)N[C@@H](CC1CCCCC1)[C@@H](O)CC(=O)c1ccccc1
assayed.target: intrinsic renin contained in the renatured human plasma (Homo sapiens, UniProt P00797)
IC50: 0.0392 µM

###

# assayed.target: intrinsic renin contained in the renatured human plasma (Homo sapiens, UniProt P00797)
# Construct: intrinsic renin contained in the renatured plasma; tissue Ortho Bi-Level Plasma Renin Control; host or cells: human plasma (lyophilized, renatured in water)
# experiment.description: Renin inhibition in vitro (angiotensin I production in renatured human plasma, RIA)
# Assay type: biochemical
# condition.label: 60 minutes incubation, read-out: IC50 (concentration which inhibits renin activity by 50%)
Consider the following compounds and their measured log10 IC50 readings.
attribute.measured: log10 IC50 (log10 of the value in nM)

compound: O=C(C[C@H](O)[C@H](CC1CCCCC1)NC(=O)[C@H](Cc1cscn1)NC(=O)[C@@H](CC(=O)N1CCOCC1)Cc1cccc2ccccc12)NCCN1CCOCC1 [ES-6864, reference compound]
attribute.measured: log10 IC50
obs.value: 0.57

compound: O=C(C[C@H](O)[C@H](CC1CCCCC1)NC(=O)[C@H](Cc1c[nH]cn1)NC(=O)[C@@H](CC(=O)N1CCOCC1)Cc1cccc2ccccc12)c1ccncc1
attribute.measured: log10 IC50
obs.value: 1.11

compound: O=C(N[C@@H](CC1CCCCC1)[C@@H](O)CNS(=O)(=O)N1CCOCC1)[C@H](Cc1cscn1)NC(=O)[C@H](Cc1ccccc1)NS(=O)(=O)N1CCOCC1
attribute.measured: log10 IC50
obs.value: -0.44

compound: CC(C)S(=O)(=O)C[C@@H](Cc1ccccc1)C(=O)N[C@@H](Cc1c[nH]cn1)C(=O)N[C@@H](CC1CCCCC1)[C@@H](O)CC(=O)c1ccccc1
attribute.measured: log10 IC50
obs.value: 1.16

compound: CN(C)S(=O)(=O)NCC(O)C(CC1CCCCC1)NC(=O)C(Cc1cscn1)NC(=O)C(Cc1ccccc1)NS(=O)(=O)N1CCOCC1 (centres unmarked)
attribute.measured: log10 IC50
obs.value: -0.15

Where do the numbers come from? From patent US5272268A.
